- procedureSummary: Inhibition of quorum sensing system in Pseudomonas aeruginosa PAO1 assessed as inhibition of protease activity at 102.4 ug/ml incubated for 24 hrs by absorbance based assay
- conditionNotes: dose 102.4 µg/ml
Active and inactive are the calls of the source. The calls are words filed in the database; no cut-off is given here.

{"smilesInput": "C=C1OC(=O)C(CNC(=O)c2ccc(OC)cc2)=C1c1ccc(F)cc1", "inhibition": "8.6%"}
{"smilesInput": "C=C1OC(=O)C(CNC(=O)c2ccc(C)cc2)=C1c1ccc(F)cc1", "inhibition": "Active"}
{"smilesInput": "C=C1OC(=O)C(CNC(=O)c2ccc(Cl)cc2)=C1c1ccc(F)cc1", "inhibition": "8.6%"}
{"smilesInput": "C=C1OC(=O)C(CNC(=O)c2ccc(F)cc2)=C1c1ccc(F)cc1", "inhibition": "30.6%"}
{"smilesInput": "C=C1C(c2ccc(F)cc2)=C(CNC(=O)c2ccc(C)cc2)C(=O)N1c1ccc(C)cc1", "inhibition": "8.6%"}
{"smilesInput": "C=C1OC(=O)C(CNC(=O)CCCCCCCCCCC)=C1c1ccc(F)cc1", "inhibition": "Active"}
{"smilesInput": "C=C1OC(=O)C(CNC(=O)CCCCCCCCCC)=C1c1ccc(F)cc1", "inhibition": "Active"}
{"smilesInput": "C=C1OC(=O)C(CNC(=O)c2ccc(C)cc2)=C1c1ccc(OC)cc1", "inhibition": "Active"}
{"smilesInput": "C=C1C(c2ccc(F)cc2)=C(CNC(=O)c2ccc(C)cc2)C(=O)N1c1ccccc1C", "inhibition": "8.6%"}
{"smilesInput": "C=C1C(c2ccc(F)cc2)=C(CNC(=O)c2ccc(C)cc2)C(=O)N1c1cccc(C)c1", "inhibition": "8.6%"}

###

Consider the following compounds and their measured MIC readings.
- Tested on: Bacillus pumilus
- procedureSummary: Antibacterial activity against penicillin-susceptible Bacillus pumilus CMCC63202 assessed as inhibition of bacterial growth incubated for 20 hrs by CLSI protocol based microdilution method
- Assay type: functional

{"smilesInput": "C=C1OC(=O)C(CNC(=O)c2ccc(C)cc2)=C1c1ccc(OC)cc1", "resultComparator": ">", "MIC / µg/mL": 512}
{"smilesInput": "C=C1OC(=O)C(CNC(=O)CCc2ccccc2)=C1c1ccc(F)cc1", "resultComparator": ">", "MIC / µg/mL": 512}
{"smilesInput": "C=C1C(c2ccc(F)cc2)=C(CNC(=O)c2ccc(C)cc2)C(=O)N1CC", "resultComparator": "=", "MIC / µg/mL": 512}
{"smilesInput": "C=C1OC(=O)C(CNC(=O)c2ccc(C)cc2)=C1c1cccc(Cl)c1", "resultComparator": ">", "MIC / µg/mL": 512}
{"smilesInput": "C=C1C(c2ccc(F)cc2)=C(CNC(=O)c2ccc(C)cc2)C(=O)N1c1ccc(C)cc1", "resultComparator": "=", "MIC / µg/mL": 512}

###

- procedureSummary: Hemolytic activity in mouse red blood cells assessed as hemolysis rate at 512 ug/ml incubated for 1 hrs by microplate reader analysis relative to control
- Format: toxicity, cell-based, Erythrocyte
- conditionNotes: red blood cells (erythrocytes), at 512 µg/mL, read-out: Activity

{"smilesInput": "C=C1OC(=O)C(CNC(=O)c2ccc(Br)cc2)=C1c1ccc(F)cc1", "hemolysis at 1 h, 512 ug/ml": "> 2.5%"}
{"smilesInput": "C=C1OC(=O)C(CNC(=O)c2ccc(Cl)cc2)=C1c1ccc(F)cc1", "hemolysis at 1 h, 512 ug/ml": "> 2.5%"}
{"smilesInput": "C=C1OC(=O)C(CNC(=O)c2ccc(F)cc2)=C1c1ccc(F)cc1", "hemolysis at 1 h, 512 ug/ml": "> 2.5%"}
{"smilesInput": "C=C1OC(=O)C(CNC(=O)c2ccc(C)cc2)=C1c1ccc(F)cc1", "hemolysis at 1 h, 512 ug/ml": "< 2.5%"}
{"smilesInput": "C=C1C(c2ccc(F)cc2)=C(CNC(=O)c2ccc(C)cc2)C(=O)N1c1cccc(C)c1", "hemolysis at 1 h, 512 ug/ml": "> 2.5%"}
{"smilesInput": "C=C1C(c2ccc(F)cc2)=C(CNC(=O)c2ccc(C)cc2)C(=O)N1c1ccc(C)cc1", "hemolysis at 1 h, 512 ug/ml": "> 2.5%"}
{"smilesInput": "C=C1C(c2ccc(F)cc2)=C(CNC(=O)c2ccc(C)cc2)C(=O)N1c1ccccc1C", "hemolysis at 1 h, 512 ug/ml": "< 2.5%"}
